Recorded values, source PubChem BioAssay.

# tested.on: Concanavalin-A (Canavalia ensiformis)
# experiment: ConA small-molecule binders, primary screen, artefact control for SMM control protein annotation, biochemical, small-molecule microarray, Alexa647 label, 635 nm (AID 1127);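 note: z combines 667 nm emission intensity with signal-to-noise across three replicate slides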
# applied.conditions: ConA-A647 binding fluorescence, higher = more signal
Entry flag: yes (1) if composite z-score reaches 0.4; no (0) if it does not.

Answered cases to consult:
O=C(CS)NCCCCCCNC(=O)[C@@H]1C[C@@H]2C(=O)NCC(=O)N2[C@@H]1c1ccc(O)cc1 : no (0)
C=CCC(OC(C)=O)[C@@H]1[C@@H](N(Cc2ccc(-c3cccc(C(F)(F)F)c3)o2)C(=O)c2cccc3ccccc23)c2cc(OCCCO)ccc2N1C(=O)Cc1ccc(OC)cc1 (stereo partly drawn) : no (0)
Cc1ccc(S[C@]2(C(=O)NCC(C)C)CC(=O)N(C3Cc4ccccc4C3)[C@@H]2c2ccc(CO)cc2I)cc1 : no (0)
CC(C)C(CO)N1C(=O)[C@@H]2[C@H]3C(=O)OCC=C[C@H]3OC23C=CCN(C(C)(C)C)C(=O)[C@@H]13 (stereo partly drawn) : no (0)
C=C(CCCC)/C(=C/C[C@H](OC(C)=O)c1ccc(OCCO)cc1)c1cc(C(=O)OC)ccc1OC : no (0)

Item CCCCC(=C=CC[C@H](O)c1ccc(OCCO)cc1)C[C@H](O)c1cc(Cl)cc(Cl)c1O with composite z-score of 0.4 or above?
yes (1)

Next record, please: COCC(=C=CC[C@@H](O)c1cccc(OCCO)c1)CCO
yes (1)

Next record, please: COc1ccc(C(O)C2C=CC3C(=O)N(c4ccccc4)C(=O)C3N2Nc2ccccc2)cc1 (stereo not drawn)
yes (1)

* * *

# tested.on: Fibroblast growth factor 10 (Homo sapiens)
# experiment: FGF10 binders on small-molecule microarrays, primary screen, biochemical, small-molecule microarray, 635 nm fluorescence (AID 1102)
# applied.conditions: FGF10 binding, fluorescence 635 nm, higher = more signal
Entry flag: T if composite z-score reaches 0.6; F if it does not.

Answered cases to consult:
COCCOC(=O)N1C(=O)[C@@]2(c3cc(C#CCCO)ccc31)[C@H](c1ccccc1OCCO)N1[C@H](c3ccccc3)[C@H](c3ccccc3)OC(=O)[C@H]1[C@@H]2C(=O)N1CCCCCCC1 : T
COc1ccc(C(O)C2C=CC3C(=O)N(c4ccccc4)C(=O)C3N2Nc2ccccc2)cc1 (stereo unspecified) : T
C=C(CCCC)C(=O)CC[C@H](OC(C)=O)c1ccc(OCCO)cc1 : F
C=C(COC)C(=O)CC[C@H](OC(C)=O)c1ccc(OCCO)cc1 : T

Item CN1C(=O)C2C=CC(C(O)c3cc(C(F)(F)F)cc(C(F)(F)F)c3)N(NC(=O)OC(C)(C)C)C2C1=O (stereo unspecified) with composite z-score of 0.6 or above?
T

Next record, please: C=C(CCCC)/C(=C/C[C@H](OC(C)=O)c1ccc(OCCO)cc1)c1cc(C(=O)OC)ccc1OC
T

Next record, please: CCOC(=O)C[C@H]1[C@H](OC(=O)c2ccc(-c3ccccc3)cc2)[C@@H](NC(=O)Cc2ccc(OC)cc2)c2cc(OCCCO)ccc2N1C(=O)Cc1ccc(OC)cc1
F

Next record, please: CN1C(=O)C2C(C1=O)C1C=C(CCCO)C2C(C2CC2)N1Cc1cc2c(cc1Br)OCO2 (stereo unspecified)
F

Next record, please: COCCOC(=O)N1C(=O)[C@@]2(c3cc(C#CC4(O)CCCCCC4)ccc31)[C@H](c1ccc(OCCO)cc1)N1[C@H](c3ccccc3)[C@H](c3ccccc3)OC(=O)[C@H]1[C@@H]2C(=O)Nc1nc2ccccc2s1
T

Next record, please: COc1cc2c(cc1OC)CN(C(=O)[C@@H]1[C@H]3C(=O)O[C@H](c4ccccc4)[C@H](c4ccccc4)N3[C@H](c3ccc(O)cc3)[C@@]13C(=O)Nc1ccc(C#CCCO)cc13)CC2
T

Next record, please: CN(C)CCCC[C@@H]1NC(=O)[C@@H]2C[C@H](C(=O)O)[C@H](c3cccc(OCCO)c3)N2C1=O
F

Next record, please: COCCCNC(=O)[C@@H]1c2ccccc2C(=O)N(C2Cc3ccccc3C2)[C@H]1c1ccc(CO)cc1
T

Next record, please: O=C1OCC=C[C@H]2OC34C=CCN(c5ccc6ccccc6c5)C(=O)[C@H]3N(CCCCCO)C(=O)[C@@H]4[C@@H]12 (stereo partly specified)
F
